- Protocol Notes: Induction of nitrous oxide release in MeOH/TBS buffer at pH 7.4 at 25 mM after 2 hrs by gas chromatographic analysis in presence of glutathione
- Type: physicochemical
- Measurement Conditions: pH 7.4, 2 h, 25000 µM
This section presents molecules with their documented Activity values.

- Given Smiles: "CC(C)N/[N+]([O-])=N/OCCS(=O)(=O)NOCc1ccccc1"
  Quantity Unit: "%"
  Activity: 0.4
- Given Smiles: "COS(=O)(=O)CCO/N=[N+](\\[O-])NC(C)C"
  Quantity Unit: "%"
  Activity: 0.4
- Given Smiles: "CC(C)N/[N+]([O-])=N/OCCS(C)(=O)=O"
  Quantity Unit: "%"
  Activity: 0.9
- Given Smiles: "CONS(=O)(=O)CCO/N=[N+](\\[O-])NC(C)C"
  Quantity Unit: "%"
  Activity: 0.5

Measured values drawn from ChEMBL document CHEMBL2176969 for this set.
